Origin of measurements: the supplement of paper PMC11502859

- System: HEK293T;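 also: lentiviral eGFP-IRES-mCherry reporter pool sorted by FACS 96 h post-transduction, gated on mCherry-high cells, Illumina read counts normalized per million, median across four biological replicates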
- test_details: median enrichment of reporter reads in eGFP-reduced (low/intermediate) vs eGFP-high sorted cells (eGFP-extension fusion abundance) (ratio); higher = stronger loss of eGFP-fusion protein abundance (more destabilising extension)
median enrichment values for the substances below.
metric_name: median enrichment

{"substance": "YDSISP [CBLN4]", "metric_name": "median enrichment", "observed_measurement": 0.384}
{"substance": "RSWPPLIYSTSLAPHLH [TNFRSF6B]", "metric_name": "median enrichment", "observed_measurement": 8.26}
{"substance": "TSLYKKVGMGRK [Degron APPBP2]", "metric_name": "median enrichment", "observed_measurement": 14.1}
{"substance": "LTYLGRLGK [APBB3]", "metric_name": "median enrichment", "observed_measurement": 9.37}
{"substance": "YAAIDSRSLYTVTSEDYT [SLC46A3]", "metric_name": "median enrichment", "observed_measurement": 6.41}
{"substance": "SFFSLSRFLAALVLL [LONRF2]", "metric_name": "median enrichment", "observed_measurement": 8.16}
{"substance": "RGHRSEMRGLECGWAPGAMGGCGAGEIKSELLLPGVPTSSSGQSVHSQPDR [BCL2]", "metric_name": "median enrichment", "observed_measurement": 1.46}
{"substance": "WPLSPHPHLHPRTSLAIGAGPLQTLIPTPTEPLAQVPLVLPHSLAARCPGAHPCRAPKDGEVGGQELLSPTFHAPPLCI [GIT1]", "metric_name": "median enrichment", "observed_measurement": 3.23}
{"substance": "RGSRRKQDTRWQA [PHGR1]", "metric_name": "median enrichment", "observed_measurement": 3.92}
{"substance": "SDVQDL [ZMPSTE24]", "metric_name": "median enrichment", "observed_measurement": 0.181}
{"substance": "LKVLAGFT [DACH2]", "metric_name": "median enrichment", "observed_measurement": 4.2}
{"substance": "LIHGAEG [SLC16A1]", "metric_name": "median enrichment", "observed_measurement": 1.29}
{"substance": "GGRVGHPKR [ZNF786]", "metric_name": "median enrichment", "observed_measurement": 0.607}
{"substance": "SKACILFEDIYKAI [KRT34]", "metric_name": "median enrichment", "observed_measurement": 2.29}
{"substance": "YTPNNLLPPLAPVAYISS [TMEM169]", "metric_name": "median enrichment", "observed_measurement": 11.3}
{"substance": "SDTLLWSETEDVG [PEX7]", "metric_name": "median enrichment", "observed_measurement": 2.59}
{"substance": "GCVLSQIYLLD [HYPK]", "metric_name": "median enrichment", "observed_measurement": 11.9}
{"substance": "LELLPCPSFPPCTT [FEZF2]", "metric_name": "median enrichment", "observed_measurement": 1.27}
{"substance": "WGGPNLDSFPALGHRRPGSSARQAWARRAPGRALSAAGARPRTSAGTRESLLGRSVNKPFFLLFFKNCFSH [DUOXA2]", "metric_name": "median enrichment", "observed_measurement": 5.58}
{"substance": "YPWALPCYPFSPLEVPNLLHPLPLL [PPRC1]", "metric_name": "median enrichment", "observed_measurement": 3.39}
{"substance": "WRGEGRPAVDSLILGRSLGCAAISFCECANTKLSRAKL [SLC25A25]", "metric_name": "median enrichment", "observed_measurement": 6.74}
{"substance": "SGTAVPACSPHLGRGSLAAFSLRSRST [AGAP1]", "metric_name": "median enrichment", "observed_measurement": 8.94}
{"substance": "QVNANSIVEPGV [PRKCB]", "metric_name": "median enrichment", "observed_measurement": 0.284}
{"substance": "GVSGGEERRADLGRALRTWPRARDSPGSSSPWQAQQHVPQIWKGLPLCQCLGGCHGCPHPLLSVCGVEEPTPASCQDHLGGHT [GPRC5C]", "metric_name": "median enrichment", "observed_measurement": 1.27}
{"substance": "SEMPAALPCQR [CUEDC1]", "metric_name": "median enrichment", "observed_measurement": 1.21}
{"substance": "LGRIMASFQNSFS [OR2AG1]", "metric_name": "median enrichment", "observed_measurement": 7.84}
{"substance": "KILNLVCRPSRGIKRLALVVKNKADSQTRSDFCPCSSFDVLSVALFLIASSTCKMLFTFCLG [DAB2]", "metric_name": "median enrichment", "observed_measurement": 18.3}
{"substance": "RKEKQLLPLSWDRGVGKSAGPHGAWGSQTEAPQNFLQCLRDAWMWPLPLLLTLKDSQTH [LY9]", "metric_name": "median enrichment", "observed_measurement": 4.97}
{"substance": "RSHFCQMLPSTINALGGRRGRQ [ETHE1]", "metric_name": "median enrichment", "observed_measurement": 12.6}
{"substance": "WWSCDVHEVLPHALEGSESRVNCPADILLGFLA [SLC7A6OS]", "metric_name": "median enrichment", "observed_measurement": 8.62}
{"substance": "DISSYLTMLSLLGAVLVGPGPCIMPRSQLQGPSWGPGWALGSGPCCSSPSHQPVPVVRKPGLLSSFLLGECQTQGPSTGLGWE [BAP1]", "metric_name": "median enrichment", "observed_measurement": 5.92}
{"substance": "PCRHHPPPSPCPQPVCPVPCPPQAWWWQWRRLRRLKRLTGRGAFCLAHCPDDPPAPSRLQQQSPRRTGWTEEKEVDCCTHTER [SOX10]", "metric_name": "median enrichment", "observed_measurement": 3.84}
{"substance": "CGHLSGPGALMEAIGTPELPSHS [ODF2]", "metric_name": "median enrichment", "observed_measurement": 0.872}
{"substance": "LAWDTEGPVRSIYCNSNCNLVLRRRESMFGQQNFSLSLKFTASISFPY [NUPR2]", "metric_name": "median enrichment", "observed_measurement": 7.51}
{"substance": "YFLSVILP [GLB1L3]", "metric_name": "median enrichment", "observed_measurement": 8.25}
{"substance": "PLAPALPTSSAWSEGAARAQQRRGGRLWPPTSRPVPAGTASPSAGRGSAPRKCLLCPGAERRCLLGAGLPPCGSCAPWPGPCP [ARHGAP39]", "metric_name": "median enrichment", "observed_measurement": 1.98}
{"substance": "QGIQGTAL [CXorf26]", "metric_name": "median enrichment", "observed_measurement": 0.941}
{"substance": "YPCTISPSSFLGQPGPALVCGDWRDQERVWRPPEGCCLPGLQ [MLST8]", "metric_name": "median enrichment", "observed_measurement": 5.76}
{"substance": "WPGGGKHREREWPSGNPAGYPNPKGSYSQRHILVFVIILYQK [VPS26C]", "metric_name": "median enrichment", "observed_measurement": 16.9}
{"substance": "QRLAPACTPAPAAGSPQSQPFGTVLTL [ABCG4]", "metric_name": "median enrichment", "observed_measurement": 28.4}
{"substance": "QAPTLLLLALLPASVQRTGRYWWEALCLAPQLPVWASKHNGPSRSLVETGVVVPNLPSALPLHRTQRPQALQGVLVPAFPRTS [AMIGO3]", "metric_name": "median enrichment", "observed_measurement": 1.8}
{"substance": "SGWLSTCSSWMASGPKLQSLNDQEQHEGLGTYPCKEFLDG [SQOR]", "metric_name": "median enrichment", "observed_measurement": 1.57}
{"substance": "LPVRPAQPGPGPRFSTRTVHPASRSL [DLGAP3]", "metric_name": "median enrichment", "observed_measurement": 17.6}
{"substance": "CTRAGGGAERGAPPPLRSLALSRPSCSLSNF [POU3F2]", "metric_name": "median enrichment", "observed_measurement": 4.86}
{"substance": "RALLERLLCHPFAPERGSSQLS [DNPEP]", "metric_name": "median enrichment", "observed_measurement": 9.53}
{"substance": "ESYNHMQLWDRSLVLGTIHTHTPSLCLWLTSQKTLVNDHSRILTRIHVTDLTQ [CPAMD8]", "metric_name": "median enrichment", "observed_measurement": 15.9}
